Consider the following molecules and their measured pKi readings.
Target: Human M3 receptor (Homo sapiens, UniProt P20309)
Construct: purchased Perkin Elmer
Sequence (P20309 whole entry): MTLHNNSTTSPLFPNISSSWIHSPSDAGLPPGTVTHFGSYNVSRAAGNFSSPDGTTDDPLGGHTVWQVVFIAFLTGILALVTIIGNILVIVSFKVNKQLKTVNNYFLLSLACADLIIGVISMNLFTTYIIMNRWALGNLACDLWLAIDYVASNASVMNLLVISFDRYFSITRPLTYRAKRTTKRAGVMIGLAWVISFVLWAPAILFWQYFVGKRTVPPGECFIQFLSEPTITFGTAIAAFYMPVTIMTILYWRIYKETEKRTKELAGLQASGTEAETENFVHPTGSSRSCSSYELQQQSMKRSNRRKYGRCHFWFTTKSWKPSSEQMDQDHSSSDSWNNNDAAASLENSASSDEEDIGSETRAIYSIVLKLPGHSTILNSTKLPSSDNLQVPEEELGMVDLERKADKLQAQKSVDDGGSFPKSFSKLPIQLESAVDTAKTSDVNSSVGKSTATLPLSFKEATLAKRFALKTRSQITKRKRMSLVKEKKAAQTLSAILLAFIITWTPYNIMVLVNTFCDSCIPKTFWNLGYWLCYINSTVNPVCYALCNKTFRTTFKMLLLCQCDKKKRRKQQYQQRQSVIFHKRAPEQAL
Assay: M3 Receptor Radioligand Binding Assay
Details: human M3 receptor membranes, [3H]-N-methyl scopolamine; read-out: M3 binding affinity (Ki class)
pKi: −log10 of the molar value.

molecule	pKi
O=C(c1ccc(OCCCCCNC[C@H](O)c2ccc(O)c3[nH]c(=O)ccc23)c(Cl)c1)N1CCC(C(=O)O[C@H]2CN3CCC2CC3)(c2ccccc2)CC1 [Compound 4]	8.00 to 9.00
O=C(NCc1ccc(CNC[C@H](O)c2ccc(O)c3[nH]c(=O)ccc23)cc1)c1ccc(C(=O)N2CC(C(=O)O[C@H]3CN4CCC3CC4)(c3ccccc3)C2)cc1 [Compound 9A]	> 9.00
O=C(NCCCCNC[C@H](O)c1ccc(O)c2[nH]c(=O)ccc12)c1ccc(C(=O)N2CCC(C(=O)O[C@H]3CN4CCC3CC4)(c3ccccc3)CC2)cc1 [Compound 19]	8.00 to 9.00
O=C(c1ccc(OCc2ccc(CNC[C@H](O)c3ccc(O)c4[nH]c(=O)ccc34)cc2)cc1)N1CCC(C(=O)O[C@H]2CN3CCC2CC3)(c2ccccc2)CC1 [Compound 24]	> 9.00
O=C(c1ccc(OCCCCCCNC[C@H](O)c2ccc(O)c3[nH]c(=O)ccc23)cc1)N1CC(C(=O)O[C@H]2CN3CCC2CC3)(c2ccccc2)C1 [Compound 2A]	> 9.00

====

Biological target: Human β2 adrenoceptor (Homo sapiens, UniProt P07550)
Construct: purchased Perkin Elmer
Sequence (P07550 whole entry): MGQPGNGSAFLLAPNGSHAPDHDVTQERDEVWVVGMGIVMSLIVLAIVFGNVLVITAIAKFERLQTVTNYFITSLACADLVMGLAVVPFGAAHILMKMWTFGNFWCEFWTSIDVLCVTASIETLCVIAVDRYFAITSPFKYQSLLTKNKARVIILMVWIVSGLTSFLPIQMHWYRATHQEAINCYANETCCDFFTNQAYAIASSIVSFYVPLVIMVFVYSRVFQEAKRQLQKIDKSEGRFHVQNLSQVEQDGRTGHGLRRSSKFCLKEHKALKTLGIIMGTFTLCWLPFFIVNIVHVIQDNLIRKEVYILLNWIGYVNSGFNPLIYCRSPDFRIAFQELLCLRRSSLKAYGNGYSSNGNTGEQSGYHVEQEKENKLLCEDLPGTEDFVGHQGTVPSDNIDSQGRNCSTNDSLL
Assay: β2 Adrenoceptor Radioligand Binding Assay
Settings: human β2 adrenoceptor membranes, 125-I Cyanopindolol; read-out: B2 binding affinity (Ki class)

compound	Ki
O=C(Cc1ccc(CC(=O)N(CCCNC[C@H](O)c2ccc(O)c3[nH]c(=O)ccc23)Cc2cccc(OCc3ccccc3)c2)cc1)N1CCC(C(=O)O[C@H]2CN3CCC2CC3)(c2ccccc2)CC1	1 to 10 nM
O=C(Cc1ccc(CC(=O)N(CCCNC[C@H](O)c2ccc(O)c3[nH]c(=O)ccc23)Cc2ccccc2N2CCOCC2)cc1)N1CCC(C(=O)O[C@H]2CN3CCC2CC3)(c2ccccc2)CC1	1 to 10 nM
COC(=O)N(Cc1ccc(CNC[C@H](O)c2ccc(O)c3[nH]c(=O)ccc23)cc1)Cc1ccc(C(=O)N2CCC(C(=O)O[C@H]3CN4CCC3CC4)(c3ccccc3)CC2)cc1	1 to 10 nM
O=C(Cc1ccc(CC(=O)N(CCCNC[C@H](O)c2ccc(O)c3[nH]c(=O)ccc23)Cc2cccc(C(F)(F)F)c2)cc1)N1CCC(C(=O)O[C@H]2CN3CCC2CC3)(c2ccccc2)CC1	1 to 10 nM
O=C(c1ccc(C(=O)N(CCCNC[C@H](O)c2ccc(O)c3[nH]c(=O)ccc23)Cc2ccccc2)s1)N1CCC(C(=O)O[C@H]2CN3CCC2CC3)(c2ccccc2)CC1	< 1 nM
O=C(NCCCCNC[C@H](O)c1ccc(O)c2[nH]c(=O)ccc12)c1ccc(C(=O)N2CC(C(=O)O[C@H]3CN4CCC3CC4)(c3ccccc3)C2)cc1 [Compound 10A]	< 1 nM
O=C(CCc1ccc(OCCCCNC[C@H](O)c2ccc(O)c3[nH]c(=O)ccc23)cc1)N1CCC(C(=O)O[C@H]2CN3CCC2CC3)(c2ccccc2)CC1	< 1 nM
O=C(NCc1ccc(CNC[C@H](O)c2ccc(O)c3[nH]c(=O)ccc23)cc1)c1ccc(C(=O)N2CC(C(=O)O[C@H]3CN4CCC3CC4)(c3ccccc3)C2)cc1	1 to 10 nM
O=C(Cc1ccc(OCCCCCNC[C@H](O)c2ccc(O)c3[nH]c(=O)ccc23)c(-c2ccsc2)c1)N1CCC(C(=O)O[C@H]2CN3CCC2CC3)(c2ccccc2)CC1	< 1 nM
Cc1cc(C(=O)N2CCC(C(=O)O[C@H]3CN4CCC3CC4)(c3ccccc3)CC2)ccc1OCCCCCNC[C@H](O)c1ccc(O)c2[nH]c(=O)ccc12	< 1 nM
CCN(CCCNC[C@H](O)c1ccc(O)c2[nH]c(=O)ccc12)C(=O)c1ccc(C(=O)N2CCC(C(=O)O[C@H]3CN4CCC3CC4)(c3ccccc3)CC2)s1	< 1 nM

====

Biological target: Human M3 receptor (Homo sapiens, UniProt P20309)
Construct: purchased Perkin Elmer
Test: M3 Receptor Radioligand Binding Assay
Settings: human M3 receptor membranes, [3H]-N-methyl scopolamine; read-out: M3 binding affinity (Ki class)

compound	Ki
CN(CCCNC[C@H](O)c1ccc(O)c2[nH]c(=O)ccc12)C(=O)c1ccc(C(=O)N2CCC(C(=O)O[C@H]3CN4CCC3CC4)(c3ccccc3)CC2)s1 [Compound 27]	1 to 10 nM
Cc1cc(CCC(=O)N2CCC(C(=O)O[C@H]3CN4CCC3CC4)(c3ccccc3)CC2)ccc1OCCCCCNC[C@H](O)c1ccc(O)c2[nH]c(=O)ccc12 [Compound 17]	< 1 nM
O=C(CCc1ccc(OCCCCCNC[C@H](O)c2ccc(O)c3[nH]c(=O)ccc23)c(-c2ccccc2)c1)N1CCC(C(=O)O[C@H]2CN3CCC2CC3)(c2ccccc2)CC1 [Compound 16]	1 to 10 nM
O=C(c1ccc(OCCCCCNC[C@H](O)c2ccc(O)c3[nH]c(=O)ccc23)c(F)c1)N1CCC(C(=O)O[C@H]2CN3CCC2CC3)(c2ccccc2)CC1 [Compound 9]	1 to 10 nM
O=C(Cc1ccc(CC(=O)N(CCCNC[C@H](O)c2ccc(O)c3[nH]c(=O)ccc23)Cc2ccccc2F)cc1)N1CCC(C(=O)O[C@H]2CN3CCC2CC3)(c2ccccc2)CC1 [Compound 45]	< 1 nM

====

Target: Human β2 adrenoceptor (Homo sapiens, UniProt P07550)
Construct: purchased Perkin Elmer
Assay: β2 Adrenoceptor Radioligand Binding Assay
Conditions: human β2 adrenoceptor membranes, 125-I Cyanopindolol; read-out: B2 binding affinity (Ki class)
quantityName: Ki

compound	quantityName	value
O=C(c1ccc(COCc2ccc(CNC[C@H](O)c3ccc(O)c4[nH]c(=O)ccc34)cc2)cc1)N1CCC(C(=O)O[C@H]2CN3CCC2CC3)(c2ccccc2)CC1	Ki	1 to 10 nM
O=C(NCCCCNC[C@H](O)c1ccc(O)c2[nH]c(=O)ccc12)c1ccc(C(=O)N2CCC(C(=O)O[C@H]3CN4CCC3CC4)(c3ccccc3)CC2)cc1	Ki	< 1 nM
O=C(Cc1ccc(OCCCCCNC[C@H](O)c2ccc(O)c3[nH]c(=O)ccc23)c(-c2ccccc2)c1)N1CCC(C(=O)O[C@H]2CN3CCC2CC3)(c2ccccc2)CC1	Ki	< 1 nM
O=C(c1ccc(OCc2ccc(CNC[C@H](O)c3ccc(O)c4[nH]c(=O)ccc34)cc2)cc1)N1CC(C(=O)O[C@H]2CN3CCC2CC3)(c2ccccc2)C1	Ki	< 1 nM
Cc1ccc(CN(CCCNC[C@H](O)c2ccc(O)c3[nH]c(=O)ccc23)C(=O)Cc2ccc(CC(=O)N3CCC(C(=O)O[C@H]4CN5CCC4CC5)(c4ccccc4)CC3)cc2)cc1	Ki	1 to 10 nM
O=C(c1ccc(CCNC[C@H](O)c2ccc(O)c3[nH]c(=O)ccc23)cc1)N1CCC(C(=O)O[C@H]2CN3CCC2CC3)(c2ccccc2)CC1	Ki	< 1 nM
O=C(CCc1ccc(OCCCCCNC[C@H](O)c2ccc(O)c3[nH]c(=O)ccc23)cc1)N1CCC(C(=O)O[C@H]2CN3CCC2CC3)(c2ccccc2)CC1	Ki	< 1 nM
Cc1ccccc1CN(CCCNC[C@H](O)c1ccc(O)c2[nH]c(=O)ccc12)C(=O)Cc1ccc(CC(=O)N2CCC(C(=O)O[C@H]3CN4CCC3CC4)(c3ccccc3)CC2)cc1	Ki	< 1 nM
Cc1cccc(CN(CCCNC[C@H](O)c2ccc(O)c3[nH]c(=O)ccc23)C(=O)Cc2ccc(CC(=O)N3CCC(C(=O)O[C@H]4CN5CCC4CC5)(c4ccccc4)CC3)cc2)c1	Ki	< 1 nM
O=C(c1ccc(OCc2cccc(OCCCCNC[C@H](O)c3ccc(O)c4[nH]c(=O)ccc34)c2)cc1)N1CCC(C(=O)O[C@H]2CN3CCC2CC3)(c2ccccc2)CC1	Ki	< 1 nM
O=C(Cc1ccc(OCc2ccc(CNC[C@H](O)c3ccc(O)c4[nH]c(=O)ccc34)cc2)cc1)N1CCC(C(=O)O[C@H]2CN3CCC2CC3)(c2ccccc2)CC1	Ki	< 1 nM
O=C(c1ccc(OCCCCCNC[C@H](O)c2ccc(O)c3[nH]c(=O)ccc23)c(Cl)c1)N1CCC(C(=O)O[C@H]2CN3CCC2CC3)(c2ccccc2)CC1	Ki	< 1 nM
COc1cc(CNC(=O)c2ccc(C(=O)N3CC(C(=O)O[C@H]4CN5CCC4CC5)(c4ccccc4)C3)cc2)ccc1CNC[C@H](O)c1ccc(O)c2[nH]c(=O)ccc12 [Compound 20A]	Ki	< 1 nM
CN(CCCNC[C@H](O)c1ccc(O)c2[nH]c(=O)ccc12)C(=O)c1ccc(CCC(=O)N2CCC(C(=O)O[C@H]3CN4CCC3CC4)(c3ccccc3)CC2)cc1	Ki	1 to 10 nM
Cc1cc(CCC(=O)N2CCC(C(=O)O[C@H]3CN4CCC3CC4)(c3ccccc3)CC2)ccc1OCCCCCNC[C@H](O)c1ccc(O)c2[nH]c(=O)ccc12	Ki	< 1 nM
O=C(c1ccc(OCCCCNC[C@H](O)c2ccc(O)c3[nH]c(=O)ccc23)cc1)N1CC(C(=O)O[C@H]2CN3CCC2CC3)(c2ccccc2)C1 [Compound 18A]	Ki	< 1 nM
CS(=O)(=O)N(Cc1ccc(CNC[C@H](O)c2ccc(O)c3[nH]c(=O)ccc23)cc1)Cc1ccc(C(=O)N2CCC(C(=O)O[C@H]3CN4CCC3CC4)(c3ccccc3)CC2)cc1	Ki	1 to 10 nM
O=C(c1ccc(CN(Cc2ccc(CNC[C@H](O)c3ccc(O)c4[nH]c(=O)ccc34)cc2)C(=O)C2CC2)cc1)N1CCC(C(=O)O[C@H]2CN3CCC2CC3)(c2ccccc2)CC1	Ki	1 to 10 nM
O=C(c1cccc(OCCCCCNC[C@H](O)c2ccc(O)c3[nH]c(=O)ccc23)c1)N1CC(C(=O)O[C@H]2CN3CCC2CC3)(c2ccccc2)C1	Ki	< 1 nM
O=C(c1ccc(OCCCCCCNC[C@H](O)c2ccc(O)c3[nH]c(=O)ccc23)cc1)N1CCC(C(=O)O[C@H]2CN3CCC2CC3)(c2ccccc2)CC1	Ki	< 1 nM
O=C(NCCC(=O)N1CCC(C(=O)O[C@H]2CN3CCC2CC3)(c2ccccc2)CC1)c1ccc(CNC[C@H](O)c2ccc(O)c3[nH]c(=O)ccc23)cc1	Ki	< 1 nM
